Below, each of the compounds is paired with its reported TGI value.
Tested on: NCI-H460 lung
protocol: NCI tumour cell line growth inhibition, 48 h

compound: O=S1(=O)NCCCN1CCNc1nccc(-c2c(-c3cccc(O)c3)nc3sccn23)n1
measurement.target: NCI-H460 lung
recorded.result: > 100 µM

Note: attention shifts to another entry.
# input What does the data say about its TGI? Entry: `COc1ccc(/C=C2/CCc3cc4ccc(OC)cc4[o+]c32)c(O)c1`
# output 9.74 µM

* * *

Tested on: MOLT-4 leukemia
protocol: NCI tumour cell line growth inhibition, 48 h; in the data active means GI50 below about 0.43 µM; inactive means the rest
The categories you may choose from are 1 (yes) for active, 0 (no) for inactive

Below are worked cases with known answers.
molecule: O=C1c2cccnc2-c2nc(-c3ccncc3)cc3c2c1nc1ccccc13
measurement.target: MOLT-4 leukemia
group.label: 0 (no)
--
molecule: CCCCCCCCCCCCCCCCCCNC(=O)[C@H]1CSC(c2cccs2)N1 (stereo partly specified)
measurement.target: MOLT-4 leukemia
group.label: 0 (no)
--
molecule: Cc1ncc(C(=O)Nc2ccc(CN3CCN(C)CC3)c(C(F)(F)F)c2)cc1C#Cc1cnc(NC2CC2)c2ncccc12
measurement.target: MOLT-4 leukemia
group.label: 0 (no)
--
molecule: CCC(=C(c1ccc(OCCCN(C)C)cc1)c1ccc(OCCCN(C)C)cc1)c1ccc(Cl)cc1
measurement.target: MOLT-4 leukemia
group.label: 1 (yes)
--
molecule: c1ccc(Cn2cnc3ccc(-c4nc(-c5ccc6c(c5)ncn6C5CCCCC5)cn5ccnc45)cc32)cc1
measurement.target: MOLT-4 leukemia
group.label: 0 (no)

Consider the additional molecule presented here.
# input Could you please tell me the result logged for `NC(=O)C1(N2CCCCC2)CCN(CCCC(=O)c2ccc(F)cc2)CC1` in this assay?
# output 0 (no)
